Tested on: TK-10
Test Protocol: NCI tumour cell line growth inhibition, 48 h
The source made the active and inactive calls. No stated cut-off is given here; in the data, active = GI50 up to about 1.1 µM and inactive = higher.
Result category, one only: 1.0 (active), 0.0 (inactive)

# Molecule, Class
rows = [
    ("CN(C)CCS/C(=N\\c1ccccc1)N1C=COC=C1", 0.0),
    ("CC1=CC(=O)N(n2c(Cc3ccccc3)n[nH]c2=O)C1=O", 0.0),
    ("Cc1cccc(C2=NC(C)(C)C(C)(C)N=C2c2cccc(C)n2)n1", 0.0),
    ("O=C(CC1(O)C(=O)Nc2c(Cl)cc(Cl)cc21)c1ccc2ccccc2c1 (stereo not given)", 0.0),
    ("CCCCCCCCCCCCCP(=O)(O)O", 0.0),
    ("[N-]=[N+]=Nc1cc(=O)n(-c2ccccc2)c2ccccc12", 0.0),
]

Dear all, I need the recorded test outcome for COc1cc2c3cc1Oc1cc(ccc1O)C[C@@H]1c4c(cc(OC)c(O)c4Oc4ccc(cc4)C[C@@H]3N(C)CC2)CC[N+]1(C)C , thank you.
0.0

Dear all, I need the recorded test outcome for CC(=O)c1c(=O)n(-c2ccc(C)cc2)c(O)c2c(N)n[nH]c12 , thank you.
0.0

Dear all, I need the recorded test outcome for COc1cccc2c1[C@H](OC)[C@]13O[C@@]1(C2=O)[C@H](O)[C@H](C)[C@@](O)(C(=O)[C@@H]1O[C@H]1C)[C@@H]3O , thank you.
1.0

Dear all, I need the recorded test outcome for O=C(/C=C/c1ccccc1)CCN1CCN(CCC(=O)/C=C/c2ccccc2)CC1 , thank you.
0.0
